assayed-system: Progesterone receptor (Homo sapiens, UniProt P06401); note: assay procedure not described here
Sequence (P06401 whole entry): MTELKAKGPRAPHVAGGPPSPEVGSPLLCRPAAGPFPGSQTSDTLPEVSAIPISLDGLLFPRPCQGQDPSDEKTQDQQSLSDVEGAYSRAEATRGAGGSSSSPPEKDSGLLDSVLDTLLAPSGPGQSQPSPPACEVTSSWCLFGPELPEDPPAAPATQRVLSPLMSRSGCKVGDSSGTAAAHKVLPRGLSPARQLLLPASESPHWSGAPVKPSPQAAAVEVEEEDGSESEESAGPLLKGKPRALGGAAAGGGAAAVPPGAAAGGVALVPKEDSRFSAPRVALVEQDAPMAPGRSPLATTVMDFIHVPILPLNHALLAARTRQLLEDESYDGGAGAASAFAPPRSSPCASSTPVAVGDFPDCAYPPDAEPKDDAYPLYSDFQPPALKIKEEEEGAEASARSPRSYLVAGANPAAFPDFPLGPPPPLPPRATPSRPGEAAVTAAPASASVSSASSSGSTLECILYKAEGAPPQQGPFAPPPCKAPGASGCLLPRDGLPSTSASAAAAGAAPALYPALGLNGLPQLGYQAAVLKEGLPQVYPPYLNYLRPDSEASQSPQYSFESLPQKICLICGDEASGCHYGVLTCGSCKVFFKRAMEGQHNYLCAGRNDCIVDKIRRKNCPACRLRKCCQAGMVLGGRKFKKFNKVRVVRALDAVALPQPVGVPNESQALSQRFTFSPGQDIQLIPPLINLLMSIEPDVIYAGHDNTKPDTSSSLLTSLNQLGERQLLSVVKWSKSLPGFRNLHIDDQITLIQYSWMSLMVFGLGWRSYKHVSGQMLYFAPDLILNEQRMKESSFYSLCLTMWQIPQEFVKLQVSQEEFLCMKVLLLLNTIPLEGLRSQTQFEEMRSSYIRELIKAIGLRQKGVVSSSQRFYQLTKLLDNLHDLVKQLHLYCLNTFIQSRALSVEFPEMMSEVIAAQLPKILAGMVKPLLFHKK
Assay type: functional
measurement-label: AC50

compound: CC(C(=O)O)c1ccc2oc(-c3ccc(Cl)cc3)nc2c1 (stereo not given) [BENOXAPROFEN]
AC50: > 30 µM

compound: COc1cc(C(=O)NC2CCCNC2)cc(OC)c1OC (stereo not given) [TROXIPIDE]
AC50: > 30 µM

compound: CCCCCCCC(=O)CC[C@@H]1[C@@H](C/C=C\CCCC(=O)OC(C)C)[C@@H](O)C[C@H]1O [UNOPROSTONE ISOPROPYL]
AC50: > 30 µM

compound: C[C@]12C/C(=C/O)C(=O)C[C@@H]1CC[C@@H]1[C@@H]2CC[C@@]2(C)[C@H]1CC[C@]2(C)O [OXYMETHOLONE]
AC50: 23 µM

compound: O=C(O)c1ccc(NC(=O)[C@H](Cc2ccc(O)cc2)NC(=O)c2ccccc2)cc1 [BENTIROMIDE]
AC50: > 10 µM

compound: CCc1cc2c(s1)-n1c(C)nnc1CN=C2c1ccccc1Cl [ETIZOLAM]
AC50: > 30 µM

Prompt: Can you share its AC50? I mean this compound: COc1cc(C)c(/C=C/C(C)=C/C=C/C(C)=C/C(=O)O)c(C)c1C [ACITRETIN]
Response: > 30 µM

Prompt: Can you share its AC50? I mean this compound: C=CCN1CCc2nc(N)sc2CC1 [TALIPEXOLE]
Response: > 30 µM

Prompt: Can you share its AC50? I mean this compound: CN(C)C/C=C/C(=O)Nc1cc2c(Nc3ccc(F)c(Cl)c3)ncnc2cc1O[C@H]1CCOC1 [AFATINIB]
Response: > 30 µM

Prompt: Can you share its AC50? I mean this compound: C=C1c2cccc(O)c2C(=O)C2=C(O)[C@]3(O)C(=O)C(C(N)=O)=C(O)[C@@H](N(C)C)[C@@H]3[C@@H](O)[C@H]12 [METHACYCLINE]
Response: > 30 µM

Prompt: Can you share its AC50? I mean this compound: CCOC(=O)[C@@H](N)Cc1ccc(-c2cc(O[C@H](c3ccc(Cl)cc3-n3ccc(C)n3)C(F)(F)F)nc(N)n2)cc1 [TELOTRISTAT ETHYL]
Response: > 30 µM

Prompt: Can you share its AC50? I mean this compound: CC(c1cc2ccccc2s1)N(O)C(N)=O (stereo not given) [ZILEUTON]
Response: > 30 µM

Prompt: Can you share its AC50? I mean this compound: COc1cc(C(C)=O)ccc1OCCCN1CCC(c2noc3cc(F)ccc23)CC1 [ILOPERIDONE]
Response: > 30 µM

Prompt: Can you share its AC50? I mean this compound: CCCCCCCN(CC)CCCC(O)c1ccc(NS(C)(=O)=O)cc1 (stereo not given) [IBUTILIDE]
Response: > 30 µM

Prompt: Can you share its AC50? I mean this compound: O=C(O)c1cccnc1Nc1cccc(C(F)(F)F)c1 [NIFLUMIC ACID]
Response: > 10 µM

Prompt: Can you share its AC50? I mean this compound: C[N+]12CCC(CC1)C(OC(=O)C(O)(c1ccccc1)c1ccccc1)C2 (stereo not given)
Response: > 30 µM

Prompt: Can you share its AC50? I mean this compound: CC(Cc1cccc(C(F)(F)F)c1)NCCOC(=O)c1ccccc1 (stereo not given) [BENFLUOREX]
Response: > 30 µM

Prompt: Can you share its AC50? I mean this compound: CCOC(=O)C1=C(C)NC(C)=C(C(=O)OCC)C1c1ccccc1/C=C/C(=O)OC(C)(C)C [LACIDIPINE]
Response: > 30 µM

Prompt: Can you share its AC50? I mean this compound: OC[C@H]1O[C@@H](Oc2cc(O)cc(/C=C/c3ccc(O)cc3)c2)[C@H](O)[C@@H](O)[C@@H]1O [PICEID]
Response: > 30 µM

Prompt: Can you share its AC50? I mean this compound: CN[C@]1(c2ccccc2Cl)CCCCC1=O [ESKETAMINE]
Response: > 30 µM

Prompt: Can you share its AC50? I mean this compound: CC(=O)[C@H]1CC[C@H]2[C@@H]3C[C@H](C)C4=CC(=O)CC[C@]4(C)[C@H]3[C@@H](O)C[C@]12C [MEDRYSONE]
Response: 0.0027 µM

Prompt: Can you share its AC50? I mean this compound: O=C(NCCO[N+](=O)[O-])c1cccnc1 [NICORANDIL]
Response: > 30 µM

Prompt: Can you share its AC50? I mean this compound: CC(=O)c1ccc(S(=O)(=O)NC(=O)NC2CCCCC2)cc1 [ACETOHEXAMIDE]
Response: > 10 µM

Prompt: Can you share its AC50? I mean this compound: CC(O)(CS(=O)(=O)c1ccc(F)cc1)C(=O)Nc1ccc(C#N)c(C(F)(F)F)c1 (stereo not given) [BICALUTAMIDE]
Response: > 30 µM

Prompt: Can you share its AC50? I mean this compound: CCC1(c2ccc(N)cc2)CCC(=O)NC1=O (stereo not given) [AMINOGLUTETHIMIDE]
Response: > 30 µM

Prompt: Can you share its AC50? I mean this compound: Cn1c(=O)c2c(ncn2CCOC(=O)C(C)(C)Oc2ccc(Cl)cc2)n(C)c1=O [THEOFIBRATE]
Response: > 30 µM

Prompt: Can you share its AC50? I mean this compound: O=c1[nH]c2ccccc2n1CCCN1CCN(C(c2ccccc2)c2ccccc2)CC1 [OXATOMIDE]
Response: > 30 µM

Prompt: Can you share its AC50? I mean this compound: `C[N+](C)(C)CCOP(=O)([O-])OC[C@H](O)CO`
Response: > 30 µM

Prompt: Can you share its AC50? I mean this compound: CC(CN(C)C)C(C)(O)Cc1ccc(Cl)cc1 (stereo not given) [CLOBUTINOL]
Response: > 30 µM

Prompt: Can you share its AC50? I mean this compound: CCC(NC(C)C)C(O)c1ccc(O)c2[nH]c(=O)ccc12 (stereo not given) [PROCATEROL]
Response: > 30 µM

These entries and their values trace back to ChEMBL document CHEMBL5291721.
